# protocol-summary: chemical genetic growth profiling, strain panel (AID 1159580);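 also: tested at 20 µM; growth read once vehicle control cultures reached saturation at 30 °C; 1 = growth at the plate median or of vehicle wells; lower values mean less growth of the strain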
# experimental-parameters: S. cerevisiae deletion strains, growth OD, locus YGL253W, strain hxk2, active compounds read low
The whole screen tested about 5,500 compounds, of which about 2,000 (36%) were called active. Not shown: some 18% with an inconclusive outcome. Some of the results follow.
Here, each record is paired with measured normalized growth data.
Enter the number alone.

The reported value for CC(C)c1c(O)c(-c2cc3c(c(C(C)C)c2O)CCC2C(C)(C)CCC[C@]32C)cc2c1CCC1C(C)(C)CCC[C@]21C (some centres undefined) in terms of normalized growth is 0.985

Field normalized growth (entry CCN(Cc1ccncc1)C(=O)C(CO)c1ccccc1 (centres undefined) ) reads 1.02

The compound listed as CNC(=O)Oc1cccc2c1OC(C)(C)O2 shows normalized growth equal to 1

Entry CN[C@@H]1[C@@H](O)C(OC2[C@@H](N)C[C@@H](N)[C@H](O[C@H]3O[C@H](C(C)O)[C@@H](O)[C@H](O)[C@H]3N)[C@H]2O)OC[C@]1(C)O (some centres undefined) , normalized growth reported as 0.963

Recorded normalized growth (compound O=c1c(O)c(-c2ccc(O)cc2O)oc2cc(O)cc(O)c12 ): 0.994

Data point: O=c1cc(-c2ccc(O)cc2)oc2cc(O[C@@H]3O[C@H](CO)[C@@H](O)[C@H](O)[C@H]3O)cc(O)c12 ; normalized growth = 1.01

CC(=O)O[C@]1(C(C)=O)CCC2C3C=C(Cl)C4=CC(=O)[C@@H]5C[C@@H]5[C@]4(C)C3CC[C@@]21C (some centres undefined) has a reported normalized growth of 0.973

Form: compound = COc1ccccc1/C=C\C(=O)O ; normalized growth = 1.01
